System: NCI-H23 lung
EXPERIMENTAL_DETAILS: NCI-60 one-dose screen, 48 h
MEASUREMENT_CONDITIONS: 10 µM
About 83,000 compounds went through this panel and 20% of them were active in at least one assay; those are over-represented in the sample as a whole. Active and inactive are the calls of the source. How the source made its calls: active means growth percent below 10; inactive means the rest.
Outcomes: active, inactive

{"columns": ["MOLECULE", "LABEL"],
 "data": [
  ["O=C(CSc1nnc(-c2ccc3nc(-c4ccccc4)[nH]c3c2)o1)Nc1ccc(Br)cc1", "inactive"],
  ["O=c1[nH]c2ccccc2cc1CSc1ccc(Nc2nccc(-c3ccc4c(c3)OCO4)n2)cc1", "inactive"],
  ["Cc1cc(C)nc(SCC(=O)Nc2ccc(S(N)(=O)=O)cc2)n1", "inactive"],
  ["CCCCOc1ccc(Nc2nc3ccccc3nc2Nc2ccc(OCCCC)cc2)cc1", "inactive"],
  ["CN1CCCN(Cc2ccc(C(=O)Nc3cccc(Nc4ccc5c(O)cccc5n4)c3)cc2C(F)(F)F)CC1", "active"],
  ["Brc1ccc(/C=N/Nc2ncnc3sc4c(c23)CCN(Cc2ccccc2)C4)cc1", "inactive"],
  ["CN1CCN(c2ccc(Nc3nc(NCCCNC(=O)c4ccccc4)c4sccc4n3)cc2)CC1", "inactive"],
  ["COc1cc2c3c(n(CCCn4ccnc4)c(=O)c2cc1OC)-c1nc2c(cc1C3=O)OCO2", "inactive"],
  ["N#Cc1c(-c2ccc(Cl)cc2)cc(-c2ccccc2)nc1OCc1ccccc1", "inactive"],
  ["C/C(=N\\NC(N)=S)c1ccc(Nc2nc(SC(C)C)nc(-c3ccccc3)c2C#N)cc1", "inactive"],
  ["O=c1[nH]c2ccc(Cl)cc2cc1CSc1ccc(Nc2nccc(-c3ccc4ccccc4c3)n2)cc1", "inactive"],
  ["O=C(Cn1nc(-c2ccccc2)ccc1=O)NN1C(=O)c2ccccc2C1=O", "inactive"],
  ["CC1=C(c2cc(-c3ccc(Cl)cc3)c(C#N)c(N)n2)C(c2ccccc2)NC(=S)N1 (stereo not drawn)", "inactive"],
  ["COc1cnc2c(c1)C(=O)c1c-2n(CCCNC(C)C)c(=O)c2cc(OC)c(OC)cc12", "inactive"],
  ["COc1cc(NC(=O)c2cc(-c3ccc(F)cc3F)ccc2O)cc(OC)c1OC", "inactive"],
  ["O=c1c2ccccc2nc(COc2ccccc2)n1/N=C/c1ccc(F)cc1", "inactive"],
  ["N#Cc1ccc(NC(=O)CSc2ccc(-c3ccc(Br)cc3)nn2)cc1", "inactive"],
  ["CCN1CCN(c2ccc(NC(=O)Nc3ccc(-c4cc(C(=O)NC)c5ncccc5n4)cc3)cc2C(F)(F)F)CC1", "active"],
  ["O=C(CSc1ccc(-c2ccc(Cl)cc2)nn1)Nc1ccc(Cl)c(C(F)(F)F)c1", "inactive"],
  ["Nc1cc(-c2cccc(C(=O)NCc3ccc4c(c3)OCO4)c2)ccn1", "inactive"],
  ["Cn1c(O)c(N=Nc2nc(-c3cc4ccccc4oc3=O)cs2)c2cc(Br)ccc21", "inactive"],
  ["O=C(Nc1cccc(-c2cn(-c3ccc4oc(=O)ccc4c3)nn2)c1)Nc1cc(C(F)(F)F)cc(C(F)(F)F)c1", "active"],
  ["COc1ccc(C(=O)Nc2sc3c(c2C#N)CCC(=O)C3)cc1C(F)(F)F", "active"],
  ["CCOC(=O)C1NN(c2ccc(S(N)(=O)=O)cc2)c2nc3nc(-c4cccs4)cc(-c4cccs4)c3c(=O)n21 (stereo not drawn)", "inactive"],
  ["O=C(c1ccc(Cl)cc1)C1[C@H](c2ccc(Br)cc2)[C@@H](c2ccccc2)NC12C(=O)Nc1ccc(Cl)cc12 (stereo partly drawn)", "active"],
  ["O=C1Nc2cc(-c3ccc(NC(=O)c4cccc([N+](=O)[O-])c4)cc3)ccc2/C1=C/c1ccc[nH]1", "inactive"],
  ["Cc1ccc(C(=O)Nc2ccc(-n3c(C)nc4c(cnn4-c4ccccc4)c3=O)cc2)cc1", "inactive"],
  ["CCOC(=O)c1sc(N/N=C(\\C)c2ccc3c(c2)Nc2ccccc2S3)nc1C", "inactive"],
  ["Cc1cc(=O)oc2cc(OCCCCOc3ccc(/C=C/C(=O)Nc4ccc(F)c(Cl)c4)cc3)ccc12", "inactive"],
  ["O=C1NC(=NC23CC4CC(CC(C4)C2)C3)N/C1=C\\c1ccc2ncccc2n1", "active"],
  ["CCCSc1nc(NC2CC2)c(C#N)c(-c2ccc(OC)cc2)n1", "inactive"],
  ["COc1cc2c(cc1OC)CN(CCCCOc1cc(O)c3c(=O)cc(-c4ccccc4)oc3c1)CC2", "inactive"],
  ["COC1=C[C@@]23CCC(=O)N2CCc2cc4c(cc2[C@H]3[C@H]1OC(=O)C(C)(C)O)OCO4", "inactive"],
  ["O=C(CN1CCN(c2ncnc3c2cnn3-c2ccccc2)CC1)Nc1nncs1", "active"],
  ["Cc1ccc(C(C)C)cc1NC(=O)c1ccccc1N(C)C", "inactive"],
  ["COc1ccccc1[C@H]1C(C(=O)c2ccc(O)cc2)C2(N[C@@H]1c1ccccc1)C(=O)Nc1ccc(Br)cc12 (stereo partly drawn)", "inactive"],
  ["Cc1ccc(-c2nc3ccc(C(=O)N=Nc4c(O)[nH]c5ccc(Cl)cc45)cc3[nH]2)cc1", "active"],
  ["O=C(O)CCCCCCCCCCN1C(=O)/C(=C/c2cnc(-c3ccc(Cl)cc3)s2)SC1=S", "inactive"]
]}

###

Test system: OVCAR-8 ovarian
EXPERIMENTAL_DETAILS: NCI-60 one-dose screen, 48 h (100 = growth as untreated, 0 = no growth, -100 = all killed)
MEASUREMENT_CONDITIONS: 10 µM
This is part of a sample that, as a whole, favours compounds with a hit. Of some 83,000 tested, about 20% had one in any assay.

{"columns": ["COMPOUND", "TEST_TARGET", "UNITS_OF_MEASURE", "growth"],
 "data": [
  ["O=C(Nc1ccc(Cl)c([N+](=O)[O-])c1)Nc1ccc(Cl)c([N+](=O)[O-])c1", "OVCAR-8 ovarian", "%", 20.7],
  ["Nc1nc(Nc2ccccc2)nn1Cc1c(Cl)cccc1Cl", "OVCAR-8 ovarian", "%", 42.3],
  ["Cc1nc(Nc2nc(C)c3ccc(OCCN4CCOCC4)cc3n2)[nH]c(=O)c1C", "OVCAR-8 ovarian", "%", 0.429],
  ["O=C(CNc1nc(-c2ccccc2)cs1)Nc1ccc(Cl)cc1", "OVCAR-8 ovarian", "%", -28.8],
  ["C=CC(=O)Nc1nc(-c2cccc(NS(=O)(=O)c3cccc4c(N(C)C)cccc34)c2)cs1", "OVCAR-8 ovarian", "%", -38.9],
  ["COc1ccc(-c2nc(S(=O)(=O)c3ccc(C)cc3)c(S(=O)(=O)CC(=O)N(C)Cc3ccccc3)o2)cc1", "OVCAR-8 ovarian", "%", 29.2],
  ["CN(CCO)c1oc(-c2ccccc2)nc1[P+](c1ccccc1)(c1ccccc1)c1ccccc1", "OVCAR-8 ovarian", "%", 12.3],
  ["CCCCCCCCCCCCCCCCCCCC(=O)NCCc1c[nH]c2ccc(OC(=O)NOCCOCCOCCOCCOCCOCCOCCOCCOCCOCCOCCOCCOCCOCCOCCOCCOCCOCCOCCOCCOCCOCCOC)cc12", "OVCAR-8 ovarian", "%", 7.17],
  ["CC1(c2ccccc2)NC(=O)N(CC(=O)Nc2ccc(C(=O)/C=C/c3ccc(Cl)cc3)cc2)C1=O (stereo not drawn)", "OVCAR-8 ovarian", "%", 17.7],
  ["O=c1[nH]c2ccc(Cl)cc2cc1CSc1ccc(Nc2nccc(-c3ccc4ccccc4c3)n2)cc1", "OVCAR-8 ovarian", "%", 9.55],
  ["CC(=O)Nc1ccc(-c2cn(-c3cccc(C(=O)Nc4cc(CN5CCOCC5)cc(C(F)(F)F)c4)c3)nn2)cn1", "OVCAR-8 ovarian", "%", -37],
  ["CCOC(=O)C1NN(c2ccc(S(N)(=O)=O)cc2)c2nc3nc(-c4cccs4)cc(-c4cccs4)c3c(=O)n21 (stereo not drawn)", "OVCAR-8 ovarian", "%", 86.7],
  ["CC(=O)Nc1nc(-c2ccc(N3CCN(C)CC3)c(NS(=O)(=O)c3ccc(C(F)(F)F)cc3)c2)cs1", "OVCAR-8 ovarian", "%", 8.42],
  ["CCN1CCN(Cc2ccc(C(=O)Nc3cccc(-c4cn(-c5ccc6oc(=O)ccc6c5)nn4)c3)cc2C(F)(F)F)CC1", "OVCAR-8 ovarian", "%", -100],
  ["COc1ccc2[nH]c(O)c(N=NC(=O)COc3ccc(NC(=O)Nc4ccc(Cl)cc4)cc3)c2c1", "OVCAR-8 ovarian", "%", -28.6],
  ["COc1nccnc1NS(=O)(=O)c1ccc(NC2=C(Cl)C(=O)c3nc(C)ccc3C2=O)cc1", "OVCAR-8 ovarian", "%", 99.5],
  ["COc1ccc(CCN2C(=O)/C(=C/c3csc(C#N)n3)SC2=S)cc1", "OVCAR-8 ovarian", "%", -5.34],
  ["Nc1nc(-c2ccccc2)cc(-c2cc3ccccc3nc2Cl)n1", "OVCAR-8 ovarian", "%", 83.9]
]}
